# Tested on: promastigote forms of Leishmania amazonensis (WHOM/BR/75/JOSEFA strain)
# Assay Protocol: Antiproliferative assay (XTT), promastigote forms, 72 h
# Assay type: cell-based
# Setup Conditions: Leishmania amazonensis; promastigote form, 72 h, XTT; read-out: L. amazonensis IC50
pIC50: −log10 of the molar value.
Parameter threshold = 4. Response is met when pIC50 meets or exceeds it, else not met.

| Structure Smiles String | Qualitative Label |
| --- | --- |
| NNC(=O)c1noc(-c2ccc([N+](=O)[O-])cc2)c1CNc1ccc(Cl)cc1 | met |
| O=C(N/N=C/c1ccccc1)c1noc(-c2ccc(Cl)cc2)c1CNc1ccc(Cl)cc1 | met |
| O=C(N/N=C/c1ccc(-c2cccs2)s1)c1noc(-c2ccc(F)cc2)c1CNc1ccccc1 | met |

stdin: Please check the record O=C(N/N=C/c1ccccc1)c1noc(-c2ccccc2)c1CNc1ccc(Cl)cc1 and state if its pIC50 is at or above 4.
stdout: met

stdin: Please check the record NNC(=O)c1noc(-c2ccccc2)c1CNc1ccccc1 and state if its pIC50 is at or above 4.
stdout: met

stdin: Please check the record COc1ccc(NCc2c(C(=O)N/N=C/c3ccc(-c4cccs4)s3)noc2-c2ccc(Cl)cc2)cc1 and state if its pIC50 is at or above 4.
stdout: met

---

What SIT-F, selectivity index (Fibroblast CC50/T. cruzi IC50) was measured for each of the following?
# Test system: epimastigote forms of Trypanosoma cruzi (Y strain)
# Assay Protocol: Antiproliferative assay (XTT), epimastigote forms, 96 h
# Type: cell-based
# Setup Conditions: fibroblast vs epimastigote
Give bare numbers.

| Structure Smiles String | Numeric Readout |
| --- | --- |
| COc1ccc(NCc2c(C(=O)NN)noc2-c2ccc(Cl)cc2)cc1 | 6.25 |

Field: SIT-F, selectivity index (Fibroblast CC50/T. cruzi IC50). Fill in for each record below.
1. O=C(N/N=C/c1ccc(-c2cccs2)s1)c1noc(-c2ccccc2)c1CNc1ccc(Cl)cc1
2. COc1ccc(NCc2c(C(=O)N/N=C/c3ccc(-c4cccs4)s3)noc2-c2ccc([N+](=O)[O-])cc2)cc1
3. O=C(N/N=C/c1ccc(-c2cccs2)s1)c1noc(-c2ccc([N+](=O)[O-])cc2)c1CNc1ccccc1
4. NNC(=O)c1noc(-c2ccc(Cl)cc2)c1CNc1ccc(Cl)cc1
5. COc1ccc(NCc2c(C(=O)N/N=C/c3ccc(-c4cccs4)s3)noc2-c2ccc(Cl)cc2)cc1

stdout:
[11.92, 4.40, 7.48, 6.84, 13.0]

Field: SIT-F, selectivity index (Fibroblast CC50/T. cruzi IC50). Fill in for each record below.
1. O=C(N/N=C/c1ccc(-c2cccs2)s1)c1noc(-c2ccc(F)cc2)c1CNc1ccccc1
2. O=C(N/N=C/c1ccccc1)c1noc(-c2ccc([N+](=O)[O-])cc2)c1CNc1ccc(Cl)cc1

stdout:
1. 9.07
2. 2.71

---

What CC50 at 72 h was measured for each of the following?
# Assay Protocol: Cytotoxicity assay in mammalian cells (MTT), fibroblasts, 72 h
# Format: cell-based
# Setup Conditions: mouse, L929 fibroblast cells, pH 7.2; 50 % inhibition of fibroblast growth, 72 h, MTT

Answered cases to consult:
| Compound | CC50 at 72 h |
| --- | --- |
| O=C(N/N=C/c1ccccn1)c1noc(-c2ccc([N+](=O)[O-])cc2)c1CNc1ccc(Cl)cc1 [5 ab] | 101 µM |
| COc1ccc(NCc2c(C(=O)N/N=C/c3ccccn3)noc2-c2ccc([N+](=O)[O-])cc2)cc1 [5 ac] | 801 µM |
| O=C(N/N=C/c1ccccc1)c1noc(-c2ccccc2)c1CNc1ccc(Cl)cc1 [4 bb] | 322 µM |

Field: CC50 at 72 h. Fill in for each record below.
1. O=C(N/N=C/c1ccc(-c2cccs2)s1)c1noc(-c2ccccc2)c1CNc1ccc(Cl)cc1 [6 bb]
2. CCOC(=O)c1noc(-c2ccc(Cl)cc2)c1CNc1ccccc1 [2 da]
3. O=C(N/N=C/c1ccccc1)c1noc(-c2ccc(Cl)cc2)c1CNc1ccc(Cl)cc1 [4 db]
4. NNC(=O)c1noc(-c2ccc([N+](=O)[O-])cc2)c1CNc1ccccc1 [3 aa]
5. O=C(N/N=C/c1ccccn1)c1noc(-c2ccc(F)cc2)c1CNc1ccc(Cl)cc1 [5 cb]
6. O=C(N/N=C/c1ccc(-c2cccs2)s1)c1noc(-c2ccccc2)c1CNc1ccccc1 [6 ba]
7. NNC(=O)c1noc(-c2ccccc2)c1CNc1ccccc1 [3 ba]
8. O=C(N/N=C/c1ccccc1)c1noc(-c2ccccc2)c1CNc1ccccc1 [4 ba]

stdout:
1. 226 µM
2. 158 µM
3. 405 µM
4. 198 µM
5. 154 µM
6. 209 µM
7. 189 µM
8. 409 µM

Field: CC50 at 72 h. Fill in for each record below.
1. O=C(N/N=C/c1ccc(-c2cccs2)s1)c1noc(-c2ccc(F)cc2)c1CNc1ccccc1 [6 ca]
2. COc1ccc(NCc2c(C(=O)NN)noc2-c2ccc([N+](=O)[O-])cc2)cc1 [3 ac]

stdout:
388 µM
499 µM
